Biological target: FRK (Homo sapiens)
Construct: purchased Reaction Biology Europe GmbH
Sequence (P42685 whole entry): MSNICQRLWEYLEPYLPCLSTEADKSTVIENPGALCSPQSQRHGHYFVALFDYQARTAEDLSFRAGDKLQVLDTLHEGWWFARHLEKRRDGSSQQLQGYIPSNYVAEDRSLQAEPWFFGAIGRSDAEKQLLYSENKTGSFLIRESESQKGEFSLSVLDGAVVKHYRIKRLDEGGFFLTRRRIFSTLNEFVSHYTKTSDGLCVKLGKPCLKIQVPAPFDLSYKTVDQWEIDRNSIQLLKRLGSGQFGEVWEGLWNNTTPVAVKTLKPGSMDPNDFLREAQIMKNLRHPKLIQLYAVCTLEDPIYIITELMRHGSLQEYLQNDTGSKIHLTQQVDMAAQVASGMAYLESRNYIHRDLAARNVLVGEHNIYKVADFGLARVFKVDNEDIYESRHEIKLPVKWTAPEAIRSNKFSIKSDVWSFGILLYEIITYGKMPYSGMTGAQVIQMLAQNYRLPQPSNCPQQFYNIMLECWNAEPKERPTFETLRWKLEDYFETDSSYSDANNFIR
Assay: PanQinase kinase panel: FRK
Type: biochemical
Conditions: read-out: INHIBITORY EFFECT @ 1 uM: FRK
This section presents molecules with their documented inhibition at 1 µM values.
PARAMETER: inhibition at 1 µM

>>> assay_result("C=CC(=O)N1CCC([C@@H]2CCNc3c(C(N)=O)c(-c4ccc(Oc5ccccc5)cc4)nn32)CC1 [Zanubrutinib]")
"50 to 69%"
>>> assay_result("COc1ccc(F)cc1C(=O)NCc1ccc(-c2nn([C@@H](C)C(F)(F)F)c(N)c2C(N)=O)cc1 [LOXO-305, pirtobrutinib]")
"< 50%"
>>> assay_result("Cc1cccnc1[C@H]1CCC[C@@H](c2ncccc2C)N1CCN1CCN(C(=O)c2ccc(-c3cc4c(-c5cccc(NC(=O)c6ccccc6)c5C)ncnc4[nH]3)cc2)CC1 [Compound I-10]")
"< 50%"
>>> assay_result("O=C(c1ccc(Oc2ccccc2)cc1Cl)c1c[nH]c2ncnc(N[C@@H]3CC[C@@H](CO)OC3)c12 [ARQ-531]")
"70 to 89%"
